All values here come from patent US20070249637A1.

MEASUREMENT DESCRIPTION: in vitro
Type: cell-based
CONDITION CONTEXT: human; 50% reduction of firefly luciferase expression, 3 days incubation; read-out: Replicon CC50
MEASUREMENT KIND: CC50 at 3 days (µM)
Write the answer as a number in µM, unit excluded.

Q. Looking for the measured CC50 at 3 days of `O=C(N[C@H]1CCCCC/C=C\[C@@H]2C[C@@]2(C(=O)O)NC(=O)[C@@H]2C[C@@H](Oc3nc(-c4ccccn4)nc4ccsc34)CN2C1=O)OC1CCCC1` , can you help?
A. 87

Q. Looking for the measured CC50 at 3 days of `O=C(N[C@H]1CCCCC/C=C\[C@@H]2C[C@@]2(C(=O)O)NC(=O)[C@@H]2C[C@@H](Oc3cc(-c4ccccn4)nc4ccsc34)CN2C1=O)OC1CCC1` , can you help?
A. 161

====

For each entry below, report its log10 Ki value.
The base-10 logarithm of Ki, taken with Ki in µM, is what appears here.

Q. Give the reported log10 Ki for `Cc1cc(-c2nc(O[C@@H]3C[C@H]4C(=O)N[C@]5(C(=O)O)C[C@H]5/C=C\CCCCC[C@H](NC(=O)OC5CCCC5)C(=O)N4C3)c3sccc3n2)n(C)n1` (system: full-length NS3-NS4A enzyme (Hepatitis C virus genotype 1a, UniProt P27958)).
Sequence (P27958 1027-1657): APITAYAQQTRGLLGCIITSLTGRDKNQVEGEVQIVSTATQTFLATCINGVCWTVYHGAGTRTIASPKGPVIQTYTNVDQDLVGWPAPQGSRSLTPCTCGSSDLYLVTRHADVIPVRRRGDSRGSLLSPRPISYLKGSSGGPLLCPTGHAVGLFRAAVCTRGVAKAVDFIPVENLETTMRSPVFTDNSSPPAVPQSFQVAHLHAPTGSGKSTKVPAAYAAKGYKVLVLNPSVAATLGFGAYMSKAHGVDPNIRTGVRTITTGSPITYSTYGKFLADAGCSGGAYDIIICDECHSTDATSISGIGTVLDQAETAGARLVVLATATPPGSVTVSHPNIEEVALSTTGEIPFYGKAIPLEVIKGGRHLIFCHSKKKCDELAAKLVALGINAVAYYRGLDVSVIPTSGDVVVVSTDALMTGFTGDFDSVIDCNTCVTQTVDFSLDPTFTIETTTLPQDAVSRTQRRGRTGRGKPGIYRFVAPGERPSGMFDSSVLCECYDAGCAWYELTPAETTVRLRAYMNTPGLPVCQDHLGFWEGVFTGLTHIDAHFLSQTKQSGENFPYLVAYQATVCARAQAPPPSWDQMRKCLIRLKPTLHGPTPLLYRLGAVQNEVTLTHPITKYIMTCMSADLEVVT
Sequence (P27958 1658-1711): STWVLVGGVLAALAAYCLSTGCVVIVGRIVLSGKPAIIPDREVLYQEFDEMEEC
A. -2.64

Q. Give the reported log10 Ki for `O=C(N[C@H]1CCCCC/C=C\[C@@H]2C[C@@]2(C(=O)O)NC(=O)[C@@H]2C[C@@H](Oc3nc(-c4ccccn4)nc4ccsc34)CN2C1=O)OC1CCCC1` (system: full-length NS3-NS4A enzyme (Hepatitis C virus genotype 1a, UniProt P27958)).
A. -2.28

Q. Give the reported log10 Ki for `Cc1cc(-c2nc(O[C@@H]3C[C@H]4C(=O)N[C@]5(C(=O)O)C[C@H]5/C=C\CCCCC[C@H](NC(=O)OC5CCC5)C(=O)N4C3)c3sccc3n2)n(C)n1` (system: full-length NS3-NS4A enzyme (Hepatitis C virus genotype 1a, UniProt P27958)).
A. -2.17

Q. Give the reported log10 Ki for `Cc1cc(-c2nc(O[C@@H]3C[C@H]4C(=O)N[C@]5(C(=O)O)C[C@H]5/C=C\CCCCC[C@H](NC(=O)OC(C)(C)C)C(=O)N4C3)c3sccc3n2)n(C)n1` (system: full-length NS3-NS4A enzyme (Hepatitis C virus genotype 1a, UniProt P27958)).
A. -1.95

Q. Give the reported log10 Ki for `O=C(CC1CC1)N[C@H]1CCCCC/C=C\[C@@H]2C[C@@]2(C(=O)O)NC(=O)[C@@H]2C[C@@H](Oc3nc(-c4ccccn4)nc4sccc34)CN2C1=O` (system: full-length NS3-NS4A enzyme (Hepatitis C virus genotype 1a, UniProt P27958)).
A. -1.41

Q. Give the reported log10 Ki for `CC(C)(C)OC(=O)N[C@H]1CCCCC/C=C\[C@@H]2C[C@@]2(C(=O)O)NC(=O)[C@@H]2C[C@@H](Oc3cc(-c4ccccn4)nc4ccsc34)CN2C1=O` (system: full-length NS3-NS4A enzyme (Hepatitis C virus genotype 1a, UniProt P27958)).
A. -2.05

Q. Give the reported log10 Ki for `O=C(N[C@H]1CCCCC/C=C\[C@@H]2C[C@@]2(C(=O)O)NC(=O)[C@@H]2C[C@@H](Oc3nc(-c4ccccn4)nc4ccsc34)CN2C1=O)OC1CCC1` (system: full-length NS3-NS4A enzyme (Hepatitis C virus genotype 1a, UniProt P27958)).
A. -1.70

Q. Give the reported log10 Ki for `O=C(N[C@H]1CCCCC/C=C\[C@@H]2C[C@@]2(C(=O)O)NC(=O)[C@@H]2C[C@@H](Oc3cc(-c4ccccn4)nc4ccsc34)CN2C1=O)OC1CCC1` (system: full-length NS3-NS4A enzyme (Hepatitis C virus genotype 1a, UniProt P27958)).
A. -2.05

Q. Give the reported log10 Ki for `O=C(CC1CC1)N[C@H]1CCCCC/C=C\[C@@H]2C[C@@]2(C(=O)O)NC(=O)[C@@H]2C[C@@H](Oc3nc(-c4ccccn4)nc4ccsc34)CN2C1=O` (system: full-length NS3-NS4A enzyme (Hepatitis C virus genotype 1a, UniProt P27958)).
A. -1.82

Q. Give the reported log10 Ki for `Cn1ccnc1-c1cc2nccc(O[C@@H]3C[C@H]4C(=O)N[C@]5(C(=O)O)C[C@H]5/C=C\CCCCC[C@H](NC(=O)OC(C)(C)C)C(=O)N4C3)c2s1` (system: full-length NS3-NS4A enzyme (Hepatitis C virus genotype 1a, UniProt P27958)).
A. -1.16

Q. Give the reported log10 Ki for `CC(C)(C)OC(=O)N[C@H]1CCCCC/C=C\[C@@H]2C[C@@]2(C(=O)O)NC(=O)[C@@H]2C[C@@H](Oc3nc(-c4ccccn4)nc4ccsc34)CN2C1=O` (system: full-length NS3-NS4A enzyme (Hepatitis C virus genotype 1a, UniProt P27958)).
A. -1.70

====

MEASUREMENT DESCRIPTION: in vitro
Format: cell-based
CONDITION CONTEXT: human; 50% reduction of firefly luciferase expression, 3 days incubation; read-out: Replicon CC50
For each entry below, report its CC50 at 3 days value.
Write the answer as a number in µM, unit excluded.

Q. Looking for the measured CC50 at 3 days of `O=C(CC1CC1)N[C@H]1CCCCC/C=C\[C@@H]2C[C@@]2(C(=O)O)NC(=O)[C@@H]2C[C@@H](Oc3nc(-c4ccccn4)nc4sccc34)CN2C1=O` , can you help?
A. 168

Q. Looking for the measured CC50 at 3 days of `CC(C)(C)OC(=O)N[C@H]1CCCCC/C=C\[C@@H]2C[C@@]2(C(=O)O)NC(=O)[C@@H]2C[C@@H](Oc3nc(-c4ccccn4)nc4ccsc34)CN2C1=O` , can you help?
A. 159

====

As a worked illustration, we turn to pKi data collected for full-length NS3-NS4A enzyme (Hepatitis C virus genotype 1a).
pKi here is simply -log10 of the concentration when that concentration is written in mol/L.

Q. Looking for the measured pKi of CC(C)(C)OC(=O)N[C@H]1CCCCC/C=C\[C@@H]2C[C@@]2(C(=O)O)NC(=O)[C@@H]2C[C@@H](Oc3nc(-c4ccccn4)nc4sccc34)CN2C1=O [Example 29] , can you help?
A. 7.38

Q. Looking for the measured pKi of CC(C)Nc1cccc(-c2nc(O[C@@H]3C[C@H]4C(=O)N[C@]5(C(=O)O)C[C@H]5/C=C\CCCCC[C@H](NC(=O)OC(C)(C)C)C(=O)N4C3)c3sccc3n2)n1 [Example 79] , can you help?
A. 7.95

Q. Looking for the measured pKi of O=C(N[C@H]1CCCCC/C=C\[C@@H]2C[C@@]2(C(=O)O)NC(=O)[C@@H]2C[C@@H](Oc3nc(-c4ccccn4)nc4sccc34)CN2C1=O)OC1CCCC1 [Example 26] , can you help?
A. 8.07

====

For each entry below, report its CC50 at 3 days value.
MEASUREMENT DESCRIPTION: in vitro
Format: cell-based
CONDITION CONTEXT: human; 50% reduction of firefly luciferase expression, 3 days incubation; read-out: Replicon CC50
Write the answer as a number in µM, unit excluded.

Q. Looking for the measured CC50 at 3 days of `O=C(N[C@H]1CCCCC/C=C\[C@@H]2C[C@@]2(C(=O)O)NC(=O)[C@@H]2C[C@@H](Oc3cc(-c4ccccn4)nc4ccsc34)CN2C1=O)OC1CCCC1` , can you help?
A. 86

Q. Looking for the measured CC50 at 3 days of `CC(C)(C)OC(=O)N[C@H]1CCCCC/C=C\[C@@H]2C[C@@]2(C(=O)O)NC(=O)[C@@H]2C[C@@H](Oc3nc(-c4ccccn4)nc4sccc34)CN2C1=O` , can you help?
A. 13

Q. Looking for the measured CC50 at 3 days of `CC(C)Nc1cccc(-c2nc(O[C@@H]3C[C@H]4C(=O)N[C@]5(C(=O)O)C[C@H]5/C=C\CCCCC[C@H](NC(=O)OC(C)(C)C)C(=O)N4C3)c3sccc3n2)n1` , can you help?
A. 212

====

MEASUREMENT DESCRIPTION: in vitro
Assay type: cell-based
CONDITION CONTEXT: human; 50% reduction of firefly luciferase expression, 3 days incubation; read-out: Replicon CC50
MEASUREMENT KIND: CC50 at 3 days

Q. Looking for the measured CC50 at 3 days of `Cn1ccnc1-c1cc2nccc(O[C@@H]3C[C@H]4C(=O)N[C@]5(C(=O)O)C[C@H]5/C=C\CCCCC[C@H](NC(=O)OC(C)(C)C)C(=O)N4C3)c2s1` , can you help?
A. > 320 µM

Q. Looking for the measured CC50 at 3 days of `O=C(CC1CC1)N[C@H]1CCCCC/C=C\[C@@H]2C[C@@]2(C(=O)O)NC(=O)[C@@H]2C[C@@H](Oc3nc(-c4ccccn4)nc4ccsc34)CN2C1=O` , can you help?
A. > 320 µM

Q. Looking for the measured CC50 at 3 days of `Cn1ccnc1-c1cc2nccc(O[C@@H]3C[C@H]4C(=O)N[C@]5(C(=O)O)C[C@H]5/C=C\CCCCC[C@H](NC(=O)OC5CCCC5)C(=O)N4C3)c2s1` , can you help?
A. > 320 µM
